# tgt: WD40 repeat protein 5 truncation mutant lacking residues 1-22 (WDR5ΔN) (UniProt P61964 23-334)
# assay-comment: medium-lived events (koff-2), event durations
Reported koff values are given for each entry in this list.
Just the number please, in s⁻¹, no unit attached.

Example entries begin here.
MGDRGPEFELGTMLNPHGAARAEVYLRGGSGGSGGSGGS (other) [O(GGS)4 nanopore sensor (adaptor O - MLL4Win - (GGS)4 tether - tFhuA)] :: 9.9
MGDRGPEFELGTMLNPHGAARAEVYLRPAPAPAPAPAPA (other) [O(PA)6 nanopore sensor (adaptor O - MLL4Win - (PA)6 tether - tFhuA)] :: 20
MGDRGPEFELGTMLNPHGAARAEVYLRGGSGGS (other) [O(GGS)2 nanopore sensor (adaptor O - MLL4Win - (GGS)2 tether - tFhuA)] :: 9.2

// next item, koff requested
Prompt: I would be grateful if you could share the reported koff for MGDRGPEFELGTMLNPHGAARAEVYLRPAPAPA (other) [O(PA)3 nanopore sensor (adaptor O - MLL4Win - (PA)3 tether - tFhuA)] .
Completion: 34
